experimentalTarget: T1, canine CD20 (canine, UniProt Q3C2E2 1-297)
T1 chain: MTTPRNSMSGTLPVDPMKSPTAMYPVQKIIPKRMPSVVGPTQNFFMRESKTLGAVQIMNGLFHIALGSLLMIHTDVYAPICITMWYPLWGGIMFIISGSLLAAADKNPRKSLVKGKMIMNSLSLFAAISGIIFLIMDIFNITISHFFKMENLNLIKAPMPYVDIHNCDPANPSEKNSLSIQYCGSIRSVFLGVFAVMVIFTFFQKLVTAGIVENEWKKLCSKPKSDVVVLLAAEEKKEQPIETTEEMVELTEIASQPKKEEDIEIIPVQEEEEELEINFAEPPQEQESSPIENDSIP
experimentSummary: cell-based or functional assay
readoutName: ADCC EC50 (nM)
The reply should be a number in nM, with the unit left off.

Example entries and their recorded answers appear below.
- PMX076 (antibody, V domains shown) VH: EVQLVESGGDLVKPGGSLRLSCVASGITFSRYYMNWVRQAPGKGLQWVAYIDSGGSPTTYADAVKGRFTISRDNAKKALYLQMNSLRAEDTAVYYCTSFDYWGQGTLVTVSS VL: SYVLTQLPSKNVTLKQPAHITCGGDNIGSKSVHWYQQKLGQAPVLIIYYDSSRPTGIPERFSGANSGNTATLTISGALAEDEADYFCQVWDSSANVFGGGTHLTVL: 0.14
- PMX073 (antibody, V domains shown) VH: EVQLVESGGDLVKPGGSLRLSCVASGFTFSRYYMNWVRQAPGKGLQWVAFITSGGSSTSYGDAVKGRFTISRDNAKNTLYLQMNSLRAEDTAVYYCTSFDYWGQGTLVTVSS VL: SYVLTQLPSKNVTLKQPAHITCGGDNIGSKSVHWYQQKLGQAPVLIIYYASSRPTGIPERFSGANSGNTATLTISGALAEDEADYYCQVWDSSANVFGGGTHLTVL: 0.21

[ask] Find the recorded ADCC EC50 belonging to PMX077 (antibody, V domains shown) VH: EVQLVESGGDLVKPGGSLRLSCVASGITFSRYYMNWVRQAPGKGLQWVAYINSGGSPTTYADAVKGRFTISRDNAKNTLYLQMNSLRAEDTAVYYCTSFDYWGQGTLVTVSS VL: SYVLTQLPSKNVTLKQPAHITCGGDNIGSKSVHWYQQKLGQAPILIIYYDTSRPTGIPERFSGANSGNTATLTISGALAEDEADYYCQVWDSSANVFGGGTHLTVL and report it.
[reply] 0.13
